- method-description: NCI Yeast Anticancer Drug Screen. Data for the mec2-1 strain (AID 157)
- conditions-used: S. cerevisiae mec2-1 strain, at 5.0 µM (retest, dose inferred, filed as 0.5), hits give high values
About 79,000 compounds went through this panel and 15% of them were active in at least one assay; those are over-represented in the sample as a whole.
measurement-label: growth inhibition (%)
Provide only the numeric value, understood in %.

>>> test_value("Cc1ccnc(NS(=O)(=O)c2ccc(Nc3c4ccccc4nc4ccccc34)cc2)n1")
15
>>> test_value("CSc1ccc2c(c1)C(N1CCN(C)CC1)Cc1ccccc1S2 (stereo not drawn)")
15
>>> test_value("O=C(O)[C@H]1[C@@H](C2CCCCC2)O[C@@H](C2CCCCC2)O[C@H]1C(F)(F)F")
-19
>>> test_value("CCOC(=O)C(NC(=O)c1ccccc1)[CH](c1ccccc1)[Sn]([c]1ccccc1)([c]1ccccc1)[c]1ccccc1 (stereo not drawn)")
-3
>>> test_value("O=C(O)/C=C\\C(=O)NNc1ccc(Br)cc1")
76
>>> test_value("CC1C=CN(N(C)C)C2=C1C(=O)c1cnccc1C2=O (stereo not drawn)")
30
>>> test_value("O=S(=O)(Oc1c(Cl)cc(Cl)cc1Cl)c1ccccc1")
-9

Continue with the compound presented below.
The compound CC1(C)CC(=O)C(C(CC(c2ccccc2)c2cc3c(cc2O)OCO3)C2=C(O)CC(C)(C)CC2=O)=C(O)C1 (stereo not drawn) showed growth inhibition equal to 1
